molecular target: POS-1 (Caenorhabditis elegans) binding to mex-3 RNA; test: C. elegans POS-1 RNA interaction disruptors – biochemical, fluorescence polarization, cherry-picked samples, set 2, counter-screen for MEX-5 RNA-binding inhibitor project, dose response (AID 493130); details: POS-1/mex-3 RNA fluorescence polarization, 1 h;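 also: POS-1 as maltose binding protein fusion made in E. coli with FITC RNA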
Results filed as inconclusive are left out.
Kindly state AC50 for each of the entries shown.

Inquiry: For the compound shown here, CCOC(=O)C1=C(CSc2nc3c(cc2C#N)CN(C)CC3)OC(N)=C(C#N)C1c1ccncc1 (stereo unspecified) , give the reported AC50.
Reply text: 7.33 µM

Inquiry: For the compound shown here, Cc1cc(=O)oc(C)c1C(=O)Nc1ccc2ncccc2c1 , give the reported AC50.
Reply text: 8.33 µM

Inquiry: For the compound shown here, CCOc1cc(/C=C2\CCCc3c2nc2ccccc2c3C(=O)O)ccc1OC , give the reported AC50.
Reply text: 0.948 µM

Inquiry: For the compound shown here, O=[N+]([O-])c1ccc(NCc2ccccc2)c2nonc12 , give the reported AC50.
Reply text: 0.434 µM

Inquiry: For the compound shown here, CN(C)c1ccc2nc3c(=O)[nH]c(=O)nc-3n(CC(O)C(O)C(O)CO)c2c1 (stereo unspecified) , give the reported AC50.
Reply text: 9.63 µM

Inquiry: For the compound shown here, CCc1cc[n+](-c2nc3ccccc3nc2[N-]S(=O)(=O)c2ccc(Br)s2)cc1 , give the reported AC50.
Reply text: 1.25 µM

Inquiry: For the compound shown here, CC(=O)Nc1ccc2cc3ccc(NC(C)=O)cc3nc2c1 , give the reported AC50.
Reply text: 6.38 µM

Inquiry: For the compound shown here, Cc1cc(O)c(-c2cc(O)c(C)cc2O)cc1O , give the reported AC50.
Reply text: 10.1 µM

Inquiry: For the compound shown here, Cc1oc2c(cc(NS(=O)(=O)c3ccc(C(C)C)cc3)c3ccccc32)c1C(=O)O , give the reported AC50.
Reply text: 10.4 µM

Inquiry: For the compound shown here, Cc1ccc(C)n1-c1sccc1C(=O)O , give the reported AC50.
Reply text: 6.08 µM

Inquiry: For the compound shown here, CN1Cc2sc(N)c(C#N)c2CC1(C)C , give the reported AC50.
Reply text: 9.75 µM
